Experiment: Total AUC in male Wistar rat at 10 mg/kg, po measured after 72 hrs by HPLC analysis
Assay type: ADME, organism-based
Settings: in vivo
PROPERTY NAME: AUC at 72 h (ng·h/mL)
Please give a number only; it is taken to be in ng·h/mL.

[ask] Note AUC at 72 h for the molecule shown: COc1cc(NC(=O)Cn2nc(-c3ccccc3)c(-c3ccccc3)nc2=O)cc(OC)c1
[reply] 1740

* * *

Test: Toxicity in wildtype Oregon R-positive Drosophila assessed as cell viability in gut at 10 uM by MTT assay relative to control
Assay type: tissue-based
Conditions: read-out: Activity
PROPERTY NAME: viability at 10 µM
The reply must contain the numeric value and, after it, the unit.

[ask] Note viability at 10 µM for the compound shown: COc1cc(NC(=O)Cn2nc(-c3ccccc3)c(-c3ccccc3)nc2=O)cc(OC)c1
[reply] 78%
